Assay: recombinant UMI read abundance after kanamycin selection (control-corrected) (log10(CPM+1)); higher = more efficient recombination; extreme values may be limits of the assay; sequences stand for … in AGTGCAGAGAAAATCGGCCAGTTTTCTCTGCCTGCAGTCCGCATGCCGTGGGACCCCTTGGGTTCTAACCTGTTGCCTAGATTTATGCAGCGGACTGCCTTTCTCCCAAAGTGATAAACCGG…AGGTTGGTTTCACT; site = the 11-nt donor;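 note: IS621 bridge recombinase in Escherichia coli cells against a fixed T5 target plasmid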
Label rule, in plain words: recombinant UMI read abundance (log10) of 0.5 and up is true (1), under 0.5 is false (0).

{"sequence.data": "GGTCCAACATGGACCGGTTTTCCCGGTAATCCGTATTTGTT (site GGTCCAACTCA)", "discrete.label": "false (0)"}
{"sequence.data": "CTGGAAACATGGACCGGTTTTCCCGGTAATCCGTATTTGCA (site ATGGAAACTTG)", "discrete.label": "false (0)"}
{"sequence.data": "CTGGAAACATGGACCGGTTTTCCCGGTAATCCGTATTTGCC (site CTGGAAACTGG)", "discrete.label": "false (0)"}
{"sequence.data": "TCGCCTTCATGGACCGGTTTTCCCGGTAATCCGTATTTGGT (site TTGCCTTCTAC)", "discrete.label": "false (0)"}
{"sequence.data": "GTAGTCGCATGGACCGGTTTTCCCGGTAATCCGTATTTGGG (site GTAGTCGCTCA)", "discrete.label": "false (0)"}
{"sequence.data": "AATGTAGCATGGACCGGTTTTCCCGGTAATCCGTATTTGCT (site AATGTACCTAG)", "discrete.label": "false (0)"}
{"sequence.data": "CTTCTCTCATGGACCGGTTTTCCCGGTAATCCGTATTTGGA (site CTTCTCTCTTC)", "discrete.label": "true (1)"}
{"sequence.data": "TGGCCGGCATGGACCGGTTTTCCCGGTAATCCGTATTTGTC (site TGGCCGGCTGA)", "discrete.label": "true (1)"}

----------
Assay: recombinant UMI read abundance after kanamycin selection (control-corrected) (log10(CPM+1)); higher = more efficient recombination; extreme values may be limits of the assay; sequences stand for … in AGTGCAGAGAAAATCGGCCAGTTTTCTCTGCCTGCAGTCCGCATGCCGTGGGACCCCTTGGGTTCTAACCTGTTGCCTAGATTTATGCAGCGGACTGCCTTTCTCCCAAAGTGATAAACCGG…AGGTTGGTTTCACT; site = the 11-nt donor
Collected recombinant UMI read abundance (log10) values appear next to each entry.

{"sequence.data": "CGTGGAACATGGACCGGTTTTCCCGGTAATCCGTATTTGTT (site CGGGGAACTAA)", "recombinant UMI read abundance (log10)": 0.00685}
{"sequence.data": "CCAGTATCATGGACCGGTTTTCCCGGTAATCCGTATTTGCA (site GCAGTATCTTG)", "recombinant UMI read abundance (log10)": 0}
{"sequence.data": "GCCTTCTCATGGACCGGTTTTCCCGGTAATCCGTATTTGGG (site ACCTTCTCTCC)", "recombinant UMI read abundance (log10)": 0.00678}
{"sequence.data": "ACGGCCGCATGGACCGGTTTTCCCGGTAATCCGTATTTGAA (site ACGGCCGCTTT)", "recombinant UMI read abundance (log10)": 1.43}
{"sequence.data": "GGGGCTCCATGGACCGGTTTTCCCGGTAATCCGTATTTGCA (site GGGGCGCCTTG)", "recombinant UMI read abundance (log10)": 0.0195}
{"sequence.data": "GATGCAGCATGGACCGGTTTTCCCGGTAATCCGTATTTGTT (site GATGCAGCTAA)", "recombinant UMI read abundance (log10)": 0.749}
{"sequence.data": "AGGAATTCATGGACCGGTTTTCCCGGTAATCCGTATTTGTT (site AGGAATTCTAA)", "recombinant UMI read abundance (log10)": 2.16}
{"sequence.data": "AGGAAGTCATGGACCGGTTTTCCCGGTAATCCGTATTTGCA (site AGGAAGACTTG)", "recombinant UMI read abundance (log10)": 0.839}
{"sequence.data": "GAGTAATCATGGACCGGTTTTCCCGGTAATCCGTATTTGGG (site GAGTAATCTCC)", "recombinant UMI read abundance (log10)": 1.57}

----------
Assay: recombinant UMI read abundance after kanamycin selection (control-corrected) (log10(CPM+1)); higher = more efficient recombination; extreme values may be limits of the assay; sequences stand for … in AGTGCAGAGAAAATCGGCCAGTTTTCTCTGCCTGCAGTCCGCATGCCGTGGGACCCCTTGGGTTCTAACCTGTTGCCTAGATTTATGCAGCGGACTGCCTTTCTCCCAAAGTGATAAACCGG…AGGTTGGTTTCACT; site = the 11-nt donor

{"sequence.data": "CAAGCAGCATGGACCGGTTTTCCCGGTAATCCGTATTTGCG (site CAAGCAGCTAG)", "recombinant UMI read abundance (log10)": 1.9}
{"sequence.data": "AGATTCCCATGGACCGGTTTTCCCGGTAATCCGTATTTGTG (site AGTTTCCCTCA)", "recombinant UMI read abundance (log10)": 0.0189}
{"sequence.data": "GCTTTCCCATGGACCGGTTTTCCCGGTAATCCGTATTTGAT (site GCTTTCCCTAT)", "recombinant UMI read abundance (log10)": 0.343}
{"sequence.data": "CGATCAGCATGGACCGGTTTTCCCGGTAATCCGTATTTGCT (site CGATCACCTAG)", "recombinant UMI read abundance (log10)": 0}
{"sequence.data": "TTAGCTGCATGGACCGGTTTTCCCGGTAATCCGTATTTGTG (site TTAGCTCCTCA)", "recombinant UMI read abundance (log10)": 0.0123}
{"sequence.data": "CACTTGGCATGGACCGGTTTTCCCGGTAATCCGTATTTGGT (site CACTTGGCTTC)", "recombinant UMI read abundance (log10)": 0.0133}
{"sequence.data": "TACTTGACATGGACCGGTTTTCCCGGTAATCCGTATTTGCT (site TACTTGACTCG)", "recombinant UMI read abundance (log10)": 0}
{"sequence.data": "GAGCTCTCATGGACCGGTTTTCCCGGTAATCCGTATTTGAC (site GAGCTCTCTGT)", "recombinant UMI read abundance (log10)": 3.55}
{"sequence.data": "ATAGTTTCATGGACCGGTTTTCCCGGTAATCCGTATTTGAC (site CTAGTATCTGT)", "recombinant UMI read abundance (log10)": 2.45}

----------
Experiment: recombinant UMI read abundance after kanamycin selection (control-corrected) (log10(CPM+1)); higher = more efficient recombination; extreme values may be limits of the assay; sequences stand for … in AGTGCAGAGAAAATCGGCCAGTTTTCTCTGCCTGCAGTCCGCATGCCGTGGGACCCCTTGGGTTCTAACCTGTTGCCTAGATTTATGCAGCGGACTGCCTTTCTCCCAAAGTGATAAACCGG…AGGTTGGTTTCACT; site = the 11-nt donor
Label rule, in plain words: recombinant UMI read abundance (log10) of 1 and up is MET, under 1 is NOT MET.

{"sequence.data": "GGAGCATCATGGACCGGTTTTCCCGGTAATCCGTATTTGAA (site GGAGCATCTTT)", "discrete.label": "MET"}
{"sequence.data": "GACCACCCATGGACCGGTTTTCCCGGTAATCCGTATTTGTT (site GTCCACCCTAA)", "discrete.label": "NOT MET"}
{"sequence.data": "CAAGCCCCATGGACCGGTTTTCCCGGTAATCCGTATTTGTG (site CAAGCTCCTCA)", "discrete.label": "NOT MET"}
{"sequence.data": "CTAGTGTCATGGACCGGTTTTCCCGGTAATCCGTATTTGAC (site CTAGTATCTGT)", "discrete.label": "MET"}
{"sequence.data": "AAGGAATCATGGACCGGTTTTCCCGGTAATCCGTATTTGCG (site CAGGAATCTCG)", "discrete.label": "MET"}
{"sequence.data": "CACTTTGCATGGACCGGTTTTCCCGGTAATCCGTATTTGGA (site CACTTCGCTTC)", "discrete.label": "NOT MET"}
{"sequence.data": "GTACTTCCATGGACCGGTTTTCCCGGTAATCCGTATTTGTC (site GTACTTCCTGA)", "discrete.label": "MET"}
{"sequence.data": "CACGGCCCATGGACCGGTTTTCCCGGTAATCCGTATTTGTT (site CACGGCTCTAA)", "discrete.label": "MET"}
{"sequence.data": "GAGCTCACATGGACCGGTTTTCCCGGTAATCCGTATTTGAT (site GAGCTCTCTAT)", "discrete.label": "NOT MET"}

----------
Test: recombinant UMI read abundance after kanamycin selection (control-corrected) (log10(CPM+1)); higher = more efficient recombination; extreme values may be limits of the assay; sequences stand for … in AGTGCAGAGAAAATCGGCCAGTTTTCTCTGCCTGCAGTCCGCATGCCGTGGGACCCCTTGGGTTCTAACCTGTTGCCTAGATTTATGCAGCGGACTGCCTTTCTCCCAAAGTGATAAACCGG…AGGTTGGTTTCACT; site = the 11-nt donor
Label rule, in plain words: recombinant UMI read abundance (log10) of 0.3 and up is satisfied, under 0.3 is not satisfied.

{"sequence.data": "ATGGAGACATGGACCGGTTTTCCCGGTAATCCGTATTTGTA (site ATGGAGACTTA)", "discrete.label": "satisfied"}
{"sequence.data": "TACAGTTCATGGACCGGTTTTCCCGGTAATCCGTATTTGAG (site TACAGTTCTCT)", "discrete.label": "satisfied"}
{"sequence.data": "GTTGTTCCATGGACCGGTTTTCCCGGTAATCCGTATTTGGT (site GTTCTTCCTAC)", "discrete.label": "not satisfied"}
{"sequence.data": "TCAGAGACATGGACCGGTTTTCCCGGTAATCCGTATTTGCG (site TCTGAGACTCG)", "discrete.label": "satisfied"}
{"sequence.data": "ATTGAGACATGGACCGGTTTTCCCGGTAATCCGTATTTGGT (site ATGGAGACTAC)", "discrete.label": "satisfied"}
{"sequence.data": "CCTACAGCATGGACCGGTTTTCCCGGTAATCCGTATTTGAT (site CCTAGAGCTAT)", "discrete.label": "not satisfied"}
{"sequence.data": "AGCCTTGCATGGACCGGTTTTCCCGGTAATCCGTATTTGTT (site AGCCTAGCTAA)", "discrete.label": "not satisfied"}
{"sequence.data": "CAAGCAGCATGGACCGGTTTTCCCGGTAATCCGTATTTGTT (site CAAGCAGCTAA)", "discrete.label": "satisfied"}
{"sequence.data": "CCAGTATCATGGACCGGTTTTCCCGGTAATCCGTATTTGCA (site TCAGTATCTTG)", "discrete.label": "not satisfied"}
